Hey, just so you know, these numbers are from patent US20250027068.

Target: pooled human IgG (human IgG1,2,3 and 4)
Experimental Endpoint: Enzyme Activity Endpoint Assay: scIgG (ng/µL)
One number for each entry, in ng/µL.

[
  {
    "Protein": "PRT-187 (protein) MANQEIRYSEVTPYHVTSVWTKGVTPPADFTYGEDVFHAPYVANQGWYDITKTFNGKDDLLCGAATAGNMLHWWFDQNKEQIEKYLKKHPEKQKIMFGDQELLDVRKVINTKGSQTNSELFNYFRDKAFPGLSARRLGVMPDLVLDMFINGYYLNVYKTQTTDVNRTYQEKDKRGGIFDAVFTRGDQSKLLTSRHDFKEKNLKEISDLIKQELTEGKALGLSHTYANVRINHVINLWGADFDSNGNLKAIYVTDSDSNASIGMKKYFVGVNSAGKVAISAKEIKEDNIGAQVLGLFTLSTGQDIWNQTN",
    "Quantitative Readout": 103
  }
]

Field: Enzyme Activity Endpoint Assay: scIgG. Fill in for each record below.
1. PRT-178 (protein) MANQEIRYSEVTPYHVTSVWTKGVTPPANFTQGEDVFHAPYVANQGWYDITKTFNGKDDLLCGAATAGNMLHWWFDQNKDQIKRYLEEHPEKQKIIFNNQELFDLKAAIDTKNHQLDSKLFEYFKEKAFPYLSTKHLGVFPDHVIDMFINGYRLSLTNHGPTPVKEGSKDPRGGIFDAVFTRGDQSKLLTSRHDFKEKNLKEISDLIKKELTEGKALGLSHTYANVRINHVINLWGADFDSNGNLKAIYVTDSDSNASIGMKKYFVGVNSAGKVAISAKEIKEDNIGAQVLGLFTLSTGQDSWNQTN
2. PRT-176 (protein) MANQEIRYSEVTPYHITSVWTKGVTPPTDFIKGEDVFHAPYKAHQGWYDITKTFNGGDDLLCGAATAGNMLHWWFDQNKTQIEAYLKKHPEKQKINFNGEQMFDVKEAIDTKNSQTNSELFNYFKEKAFPYLSTKHLGVFPDHVIDMFINGYRLSLTNHGPTPVKRQTKDPRGGIFDAVFGRGDQTKLLTSRHDFKEKTLNDISQLIKQELQSGKALGLSHTYANVRINHVINLWGADFDAEGNLEAIYVTDSDSNASIGMKKYFVGKNASGKVAISAKEIEDENIGAQVLGLFTLSTGKKSWEKTN
3. PRT-301 (protein) MVTSVWTKGVTPPTDFIKGEDVFHAPYDAGQGWYDITKTFNGKDDLLCGAATAGNMLHWWFDQNKEYIEAYLKKHPEKQKIMFGDQELLDVRKAINTKGSQKNSELFNYFRDKAFPNLSARRLGVMPDLVLDMFINGYYLNVTKTQTTDVNRTYQEKDKRGGIFDAVFTRGDQSKLLTSRHDFKEKGLKEISDLIKQELTEGKALGLSHTYANVRISHVINLWGADFDSDGNLKAIYVTDSDSNASIGMKKYFVGVNSAGKVAISAKEIKEDNIGAQVLGLFTLSTGQDIWNQTN

A:
[0, 86, 0]
